The values you see were collected from patent US20140235774A1.

# method description: Solubility in transparent silicone resin SIM-360 base compound (portion-wise addition until transparent)
# Format: physicochemical
# assay conditions: room temperature, with stirring
readout type: solubility in the SIM-360 base compound (µM)

compound: C[Si](C)(C)O[Si](C)(O[Si](C)(C)C)c1cccc(N(c2ccc(-c3ccc(N(c4ccccc4)c4ccc(-c5ccc(N(c6ccccc6)c6ccccc6)cc5)cc4)cc3)cc2)c2ccc(-c3ccc(N(c4ccccc4)c4ccc(-c5ccc(N(c6ccccc6)c6ccccc6)cc5)cc4)cc3)cc2)c1 [Compound 3]
recorded number: 100

compound: C[Si](C)(C)O[Si](C)(O[Si](C)(C)C)c1cccc(N(c2ccccc2)c2ccc(-c3ccc(N(c4ccccc4)c4ccc(-c5ccc(N(c6ccccc6)c6ccc(-c7ccc(N(c8ccccc8)c8cccc([Si](C)(O[Si](C)(C)C)O[Si](C)(C)C)c8)cc7)cc6)cc5)cc4)cc3)cc2)c1 [Compound 2]
recorded number: 500

compound: C[Si](C)(C)O[Si](C)(C)c1cccc(N(c2ccc(-c3ccc(N(c4ccccc4)c4ccc(-c5ccc(N(c6ccccc6)c6ccccc6)cc5)cc4)cc3)cc2)c2ccc(-c3ccc(N(c4ccccc4)c4ccc(-c5ccc(N(c6ccccc6)c6ccccc6)cc5)cc4)cc3)cc2)c1 [Compound 4]
recorded number: 100

compound: Cc1ccc(N(c2ccc(C)cc2)c2ccc(-c3ccc(N(c4ccc(-c5ccc(N(c6ccc(C)cc6)c6ccc(C)cc6)cc5)cc4)c4cccc([Si](C)(O[Si](C)(C)C)O[Si](C)(C)C)c4)cc3)cc2)cc1 [Compound 1]
recorded number: 1000
